molecular target: PfPFT (Plasmodium falciparum, UniProt Q8I503+Q8IHP6); test: PfPFT inhibition, scintillation proximity assay with partially purified PfPFT; assay type: biochemical; details: read-out: % Inhibition of PfPFT at 50 nM, inhibitor at 50 nM
Sequence (Q8I503 1-521): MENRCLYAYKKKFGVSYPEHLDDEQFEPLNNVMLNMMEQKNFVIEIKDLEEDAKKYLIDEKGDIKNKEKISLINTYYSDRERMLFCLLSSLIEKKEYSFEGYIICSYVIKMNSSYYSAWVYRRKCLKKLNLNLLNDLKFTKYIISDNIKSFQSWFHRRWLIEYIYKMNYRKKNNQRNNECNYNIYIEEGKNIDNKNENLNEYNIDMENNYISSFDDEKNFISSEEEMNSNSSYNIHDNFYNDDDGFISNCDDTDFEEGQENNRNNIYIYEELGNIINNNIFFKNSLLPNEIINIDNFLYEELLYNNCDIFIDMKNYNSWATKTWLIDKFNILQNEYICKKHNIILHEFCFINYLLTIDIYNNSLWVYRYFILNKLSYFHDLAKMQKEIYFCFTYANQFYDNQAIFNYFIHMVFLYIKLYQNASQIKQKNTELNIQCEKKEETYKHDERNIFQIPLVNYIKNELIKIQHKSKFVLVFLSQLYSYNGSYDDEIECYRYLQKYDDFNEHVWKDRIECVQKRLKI
Sequence (Q8IHP6 1-923): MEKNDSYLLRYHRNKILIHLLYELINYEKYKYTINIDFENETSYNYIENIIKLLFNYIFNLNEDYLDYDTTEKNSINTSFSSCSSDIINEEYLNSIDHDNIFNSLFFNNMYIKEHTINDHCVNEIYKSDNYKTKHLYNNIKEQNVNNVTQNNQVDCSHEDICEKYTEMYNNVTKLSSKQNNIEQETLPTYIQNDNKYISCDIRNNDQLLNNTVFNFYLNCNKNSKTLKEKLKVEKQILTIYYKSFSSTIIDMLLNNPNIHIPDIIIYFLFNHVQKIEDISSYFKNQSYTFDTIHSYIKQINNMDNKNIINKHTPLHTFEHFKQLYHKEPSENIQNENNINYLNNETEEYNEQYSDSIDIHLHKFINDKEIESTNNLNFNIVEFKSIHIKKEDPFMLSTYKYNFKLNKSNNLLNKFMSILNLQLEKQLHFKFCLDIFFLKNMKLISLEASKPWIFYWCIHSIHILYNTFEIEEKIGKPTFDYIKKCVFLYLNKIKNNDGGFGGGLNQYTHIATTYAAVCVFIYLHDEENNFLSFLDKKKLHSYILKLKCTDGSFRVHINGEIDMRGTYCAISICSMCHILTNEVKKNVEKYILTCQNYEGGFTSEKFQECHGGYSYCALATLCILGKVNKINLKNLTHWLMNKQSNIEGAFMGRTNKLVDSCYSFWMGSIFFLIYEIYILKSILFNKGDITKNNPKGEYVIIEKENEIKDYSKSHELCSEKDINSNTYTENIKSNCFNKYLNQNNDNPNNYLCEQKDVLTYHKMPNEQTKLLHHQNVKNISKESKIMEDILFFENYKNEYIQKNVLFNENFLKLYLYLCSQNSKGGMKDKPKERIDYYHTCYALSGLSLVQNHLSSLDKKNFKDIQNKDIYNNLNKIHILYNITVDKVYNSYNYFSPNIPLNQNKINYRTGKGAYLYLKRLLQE
Where inhibition at 0.05 µM equals or exceeds 60%, the correct label is Criterion met; where it does not, the label is Criterion not met.

- Cn1cncc1CN(CCN(Cc1ccccc1)S(=O)(=O)c1cccs1)c1ccc(C#N)cc1: Criterion met
- O=S(=O)(c1ccc2ccccc2c1)N(CCN(Cc1cnc[nH]1)c1ccccc1)Cc1ccccc1: Criterion not met
- Cn1cnc(S(=O)(=O)N(CCN(Cc2cncn2C)c2ccc(C#N)cc2)Cc2ccc(-c3ccccc3)cc2)c1: Criterion not met
- CC(=O)N1CCC(CN(CCN(Cc2cncn2C)c2ccc(C#N)cc2)S(=O)(=O)c2cn(C)cn2)CC1: Criterion not met
- Cc1ccccc1CN(CCN(Cc1cncn1C)c1ccc(-c2ccccc2)cc1)S(=O)(=O)c1cn(C)cn1: Criterion met
- Cn1cnc(S(=O)(=O)N(CCN(Cc2cncn2C)c2ccc(C#N)cc2)CC2CCN(c3ncccn3)CC2)c1: Criterion met
- Cn1cnc(S(=O)(=O)N(CCN(Cc2cncn2C)c2ccc(Br)cc2)Cc2ccccc2)c1: Criterion met
- Cn1cnc(S(=O)(=O)N(CCN(Cc2cncn2C)c2ccc(C#N)cc2)Cc2cccc(-c3ccccc3)c2)c1: Criterion met

Prompt line: Could you tell me if the measured inhibition at 0.05 µM of C=C(C)CN(CCN(Cc1cncn1C)c1ccc(C#N)cc1)S(=O)(=O)c1cn(C)cn1 reaches 60% or more?
Response line: Criterion met

Prompt line: Could you tell me if the measured inhibition at 0.05 µM of Cn1cnc(S(=O)(=O)N(CCN(Cc2cnc[nH]2)c2ccccc2)Cc2ccccc2)c1 reaches 60% or more?
Response line: Criterion not met

Prompt line: Could you tell me if the measured inhibition at 0.05 µM of Cn1cnc(S(=O)(=O)N(CCN(Cc2cncn2C)c2ccc(C#N)cc2)CC2CCOCC2)c1 reaches 60% or more?
Response line: Criterion met

Prompt line: Could you tell me if the measured inhibition at 0.05 µM of CC(C)C(=O)N1CCC(CN(CCN(Cc2cncn2C)c2ccc(C#N)cc2)S(=O)(=O)c2cn(C)cn2)CC1 reaches 60% or more?
Response line: Criterion met

Prompt line: Could you tell me if the measured inhibition at 0.05 µM of Cn1cnc(S(=O)(=O)N(CCN(Cc2cncn2C)c2ccc(C#N)cc2)Cc2ccccn2)c1 reaches 60% or more?
Response line: Criterion met

Prompt line: Could you tell me if the measured inhibition at 0.05 µM of Cn1cnc(S(=O)(=O)N(CCN(Cc2cncn2C)c2ccc(C#N)cc2)Cc2ccc(C#N)cc2)c1 reaches 60% or more?
Response line: Criterion not met

Prompt line: Could you tell me if the measured inhibition at 0.05 µM of Cn1cnc(S(=O)(=O)N(CCN(Cc2cncn2C)c2ccc(C#N)cc2)Cc2cccnc2)c1 reaches 60% or more?
Response line: Criterion met

Prompt line: Could you tell me if the measured inhibition at 0.05 µM of Cn1cnc(S(=O)(=O)N(CCN(Cc2cncn2C)c2ccc(C#N)cc2)Cc2ccncc2)c1 reaches 60% or more?
Response line: Criterion met

Prompt line: Could you tell me if the measured inhibition at 0.05 µM of Cn1cncc1CN(CCN(Cc1ccccc1)S(=O)(=O)c1ccccc1)c1ccc(C#N)cc1 reaches 60% or more?
Response line: Criterion met

Prompt line: Could you tell me if the measured inhibition at 0.05 µM of O=S(=O)(c1cccc2cccnc12)N(CCN(Cc1cnc[nH]1)c1ccccc1)Cc1ccccc1 reaches 60% or more?
Response line: Criterion not met

Prompt line: Could you tell me if the measured inhibition at 0.05 µM of Cn1cnc(S(=O)(=O)N(CCN(Cc2cnc[nH]2)c2ccc(Br)cc2)Cc2ccccc2)c1 reaches 60% or more?
Response line: Criterion met
